Provide the recorded koff for the entries that follow.
System Under Test: Recombinant human his-tagged IGF R extracellular domain protein (human) (UniProt P08069)
Run Description: SPR, Ab captured via anti-huIgG Fc, dissociation at pH 6
Numbers only, in s⁻¹.

Example cases with answers are listed next.
[[record]]
binder = "VRDN-02020 (antibody, V domains shown) VH: QVQLQESGPGLVKPSETLSLTCTVSGYSITGGYLWNWIRQPPGKGLEWIGYISYDGTNHYKPSLKDRVTISRDTSKNQFSLKLSSVTAADTAVYYCARYGRVFFDYWGQGTLVTVSS VL: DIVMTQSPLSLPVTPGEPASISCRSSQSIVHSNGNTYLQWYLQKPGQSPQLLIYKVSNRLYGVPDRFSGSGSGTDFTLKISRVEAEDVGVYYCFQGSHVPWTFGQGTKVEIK"
unit = "s⁻¹"
result = "9.56e-05"

[[record]]
binder = "VRDN-02054 (antibody, V domains shown) VH: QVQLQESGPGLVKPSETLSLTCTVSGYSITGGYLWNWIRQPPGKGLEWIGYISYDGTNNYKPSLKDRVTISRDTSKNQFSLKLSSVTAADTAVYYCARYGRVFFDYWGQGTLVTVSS VL: DIVMTQSPLSLPVTPGEPASISCRSSQSIVHSNGNTYLQWYLQKPGQSPQLLIYKVSNRLYGVPDRFSGSGSGTDFTLKISRVEAEDVGVYYCFQGHHVPWTFGQGTKVEIK"
unit = "s⁻¹"
result = "8.07e-05"


Pending binder:
INPUT: So what does the record say about koff for VRDN-02056 (antibody, V domains shown) VH: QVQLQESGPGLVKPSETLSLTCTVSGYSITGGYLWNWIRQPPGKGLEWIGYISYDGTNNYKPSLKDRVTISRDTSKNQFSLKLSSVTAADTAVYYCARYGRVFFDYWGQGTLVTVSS VL: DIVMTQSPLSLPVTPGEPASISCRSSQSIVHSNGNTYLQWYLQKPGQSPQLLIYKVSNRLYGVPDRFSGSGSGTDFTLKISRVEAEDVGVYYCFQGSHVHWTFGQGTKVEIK ?
OUTPUT: 9.75e-05
